Values from patent US20220396565A1

system: Acinetobacter baumannii ATCC17961; assay: Antimicrobial susceptibility testing: 90% growth inhibitory concentration (IC90) determination, Iso-Sensitest broth; type: cell-based; conditions: Acinetobacter baumannii, ATCC17961, 90% growth inhibitory concentration, Acinetobacter baumannii ATCC17961, Iso-Sensitest broth; read-out: ATCC 17961 IC90
Structures can show the parent of a compound that is named as a salt.
# maps each entry to its IC90
Quick reminder: number only, in nM, skip the unit.

Please review the following examples before continuing.
{"columns": ["MOLECULE", "UNIT LABEL", "IC90"],
 "data": [
  ["Cn1c(-c2ccc(OCF)c(F)c2Cl)cnc1C(=O)Nc1ccc(C(=O)N2CCC(C(=O)N[C@H]3CCNC3)CC2)c(Cl)c1 [Example 65, formate]", "nM", 50],
  ["COc1c(F)cc(-c2cnc(C(=O)Nc3ccc(C(=O)N4CCN(C(=O)C5CCNCC5)CC4)c(Cl)c3)n2C)c(F)c1F [Example 168, formate]", "nM", 150],
  ["CC[C@@]1(O)CN[C@H](C(=O)N2CCN(C(=O)c3ccc(NC(=O)c4ncc(-c5ccc(OCC#N)c(F)c5F)n4C)cc3C)CC2)C1 [Example 226, formate]", "nM", 130],
  ["Cn1c(-c2ccc(OCF)c(F)c2F)cnc1C(=O)Nc1ccc(C(=O)N2CCC(C(=O)NC[C@@H]3CCNC3)CC2)c(Cl)c1 [Example 54, formate]", "nM", 40],
  ["COc1ccc(-c2cnc(C(=O)Nc3ccc(C(=O)N4CCN(C(=O)C[C@@H]5CCNC5)CC4)c(Cl)c3)n2C)c(Cl)c1F [Example 167, formate]", "nM", 50],
  ["Cn1c(-c2ccc(OCF)c(F)c2F)cnc1C(=O)Nc1ccc(C(=O)N2CCC(C(=O)N[C@H]3CNC[C@H]3F)CC2)c(Cl)c1 [Example 51, trifluoroacetate]", "nM", 30]
]}

**Q:** # IC90 lookup, item Cn1c(-c2ccc(OCF)c(F)c2F)cnc1C(=O)Nc1ccc(C(=O)N2CCN(C(=O)C3CNCC3O)CC2)c(Cl)c1 (stereo not drawn) [Example 148, formate]
**A:** 40

**Q:** Another molecule to look at: COc1ccc(-c2cnc(C(=O)Nc3ccc(C(=O)N4CCC(C(=O)NC[C@H](C)N)CC4)c(Cl)c3)n2C)c(F)c1F
**A:** 80

**Q:** Another molecule to look at: COc1ccc(-c2cnc(C(=O)Nc3ccc(C(=O)N4CCC(NC(=O)CCOCCN)C4)c(Cl)c3)n2C)c(F)c1F (stereo not drawn) [Example 111, formate]
**A:** 300

**Q:** Another molecule to look at: CN(C)CC(=O)N1CCN(C(=O)c2ccc(NC(=O)c3ncc(-c4ccc(OCF)c(F)c4F)n3C)cc2Cl)CC1 [Example 220, formate]
**A:** 40

**Q:** Another molecule to look at: COc1ccc(-c2cnc(C(=O)Nc3ccc(C(=O)N4CCN(C(=O)C5(O)CCNCC5)CC4)c(Cl)c3)n2C)c(F)c1F [Example 166, formate]
**A:** 50

**Q:** Another molecule to look at: COc1ccc(-c2cnc(C(=O)Nc3ccc(C(=O)N4CCN(S(=O)(=O)C5CCNC5)CC4)c(Cl)c3)n2C)c(F)c1F (stereo not drawn)
**A:** 150

**Q:** Another molecule to look at: COc1ccc(-c2cnc(C(=O)Nc3ccc(C(=O)N4CCC(NC(=O)CCN(C)C)CC4)c(Cl)c3)n2C)c(F)c1F [Example 101, formate]
**A:** 50

**Q:** Another molecule to look at: COc1ccc(-c2cnc(C(=O)Nc3ccc(C(=O)N4CCN(C(=O)CCOCCC(N)=O)CC4)c(Cl)c3)n2C)c(F)c1F
**A:** 150

**Q:** Another molecule to look at: COc1cc(-c2cnc(C(=O)Nc3ccc(C(=O)N4CCN(C(=O)C5CCNCC5)CC4)c(Cl)c3)n2C)cc(F)c1F [Example 258, formate]
**A:** 1120

**Q:** Another molecule to look at: COc1ccc(-c2cnc(C(=O)Nc3ccc(C(=O)N4CCC(C(=O)N[C@@H]5CNC[C@H]5O)CC4)c(Cl)c3)n2C)c(F)c1F [Example 60, formate]
**A:** 50

----------
Test system: Acinetobacter baumannii ATCC17961
Test: Antimicrobial susceptibility testing: 90% growth inhibitory concentration (IC90) determination, Iso-Sensitest broth
Assay type: cell-based
Conditions: Acinetobacter baumannii, ATCC17961, 90% growth inhibitory concentration, Acinetobacter baumannii ATCC17961, Iso-Sensitest broth; read-out: ATCC 17961 IC90
Experimental: The in vitro antimicrobial activity of the compounds was determined according to the following procedure: The assay used a 10-points Iso-Sensitest broth medium to measure quantitatively the in vitro activity of the compounds against Acinetobacter baumannii ATCC17978 or ATCC17961. […] Bacterial cell growth was determined with the measurement of optical density at k=600 nm each 20 minutes over a time course of 16 h. […]
Structures can show the parent of a compound that is named as a salt.
We label by threshold. Values of IC90 strictly beneath 100 nM are class 1. Values of 100 nM and up are class 0.

{"columns": ["MOLECULE", "TARGET", "CATEGORY LABEL"],
 "data": [
  ["Cn1c(-c2ccc(OC(F)F)cc2F)cnc1C(=O)Nc1ccc(C(=O)N2CCN(C(=O)C3CCNCC3)CC2)c(Cl)c1 [Example 180, formate]", "Acinetobacter baumannii ATCC17961", "class 1"],
  ["Cn1c(-c2ccc(OC(F)F)c(F)c2F)cnc1C(=O)Nc1ccc(C(=O)N2CCC(C(=O)N3CCC(C(N)=O)C3)CC2)c(Cl)c1 (stereo not drawn) [Example 49, trifluoroacetate]", "Acinetobacter baumannii ATCC17961", "class 0"],
  ["COc1ccc(-c2cnc(C(=O)Nc3ccc(C(=O)N4CCN(C(=O)C5CNC(=O)N5)CC4)c(Cl)c3)n2C)c(F)c1F (stereo not drawn) [Example 133]", "Acinetobacter baumannii ATCC17961", "class 0"]
]}

Moving on to another molecule below.
**Q:** For this molecule, is IC90 lower than 100 nM? COc1ccc(-c2cnc(C(=O)Nc3ccc(C(=O)N4CCN(C(=O)C[C@@H]5CCCN5)CC4)c(Cl)c3)n2C)c(F)c1F [Example 154, formate]
**A:** class 1

----------
system: Acinetobacter baumannii ATCC17961; experiment: Antimicrobial susceptibility testing: 90% growth inhibitory concentration (IC90) determination, Iso-Sensitest broth; assay type: cell-based; conditions: Acinetobacter baumannii, ATCC17961, 90% growth inhibitory concentration, Acinetobacter baumannii ATCC17961, Iso-Sensitest broth; read-out: ATCC 17961 IC90
Where a name gives a salt, the structure may show the parent alone.
# maps each entry to its IC90
Quick reminder: number only, in µM, skip the unit.

Please review the following examples before continuing.
{"columns": ["COMPOUND", "TARGET", "IC90 (µM)"],
 "data": [
  ["CCc1cc(NC(=O)c2ncc(-c3ccc(OC)c(F)c3F)n2C)ccc1C(=O)N1CCC(C(=O)NCCOCCN(C)C)CC1", "Acinetobacter baumannii ATCC17961", 0.48],
  ["COc1ccc(-c2cnc(C(=O)Nc3ccc(C(=O)N4CCN(S(=O)(=O)CCN)CC4)c(Cl)c3)n2C)c(F)c1F", "Acinetobacter baumannii ATCC17961", 0.15]
]}

Would you kindly look at the next entry?
**Q:** Test system Acinetobacter baumannii ATCC17961; read-out IC90; what value for COc1ccc(-c2cnc(C(=O)Nc3ccc(C(=O)N4CCC(C(=O)N5CCC(N)CC5)CC4)c(Cl)c3)n2C)c(F)c1F [Example 39, formate] ?
**A:** 0.07

----------
tested on: Acinetobacter baumannii ATCC17961; experiment: Antimicrobial susceptibility testing: 90% growth inhibitory concentration (IC90) determination, Iso-Sensitest broth; format: cell-based; settings: Acinetobacter baumannii, ATCC17961, 90% growth inhibitory concentration, Acinetobacter baumannii ATCC17961, Iso-Sensitest broth; read-out: ATCC 17961 IC90
Where a name gives a salt, the structure may show the parent alone.
We label by threshold. Values of IC90 strictly beneath 50 nM are yes (1). Values of 50 nM and up are no (0).

Record excerpt, results attached:
{"columns": ["COMPOUND", "CATEGORY LABEL"],
 "data": [
  ["COc1ccc(-c2cnc(C(=O)Nc3ccc(C(=O)N4CCN(C(=O)C5(O)CCNC5)CC4)c(Cl)c3)n2C)c(F)c1F (stereo not drawn) [Example 141, formate]", "no (0)"],
  ["COc1ccc(-c2cnc(C(=O)Nc3ccc(C(=O)N4CCN(C(=O)C5CCC(=O)NC5)CC4)c(Cl)c3)n2C)c(F)c1F (stereo not drawn) [Example 125]", "no (0)"],
  ["COc1ccc(-c2cnc(C(=O)Nc3ccc(C(=O)N4CCN(C(=O)[C@H]5CCNC[C@@H]5O)CC4)c(Cl)c3)n2C)c(F)c1F [Example 231, formate]", "no (0)"]
]}

**Q:** For this compound, is IC90 lower than 50 nM? Cn1c(-c2ccc(OCF)c(F)c2F)cnc1C(=O)Nc1ccc(C(=O)N2CCN(C(=O)[C@@H]3CCNC3)CC2)c(Cl)c1 [Example 155, formate]
**A:** yes (1)

**Q:** Another compound to look at: Cn1c(-c2ccc(OCF)c(F)c2Cl)cnc1C(=O)Nc1ccc(C(=O)N2CCN(C(=O)C[C@@H]3CCNC3)CC2)c(Cl)c1 [Example 146, formate]
**A:** yes (1)

**Q:** Another compound to look at: Cn1c(-c2ccc(OC(F)F)c(F)c2)cnc1C(=O)Nc1ccc(C(=O)N2CCN(C(=O)C3CCNCC3)CC2)c(Cl)c1 [Example 144, formate]
**A:** no (0)

**Q:** Another compound to look at: Cn1c(-c2ccc(OC(F)F)c(F)c2F)cnc1C(=O)Nc1ccc(C(=O)N2CCC(C(=O)N[C@@H]3CNC[C@H]3O)CC2)c(Cl)c1 [Example 96, formate]
**A:** yes (1)

**Q:** Another compound to look at: CCc1cc(NC(=O)c2ncc(-c3ccc(OC)c(F)c3F)n2C)ccc1C(=O)N1CCC(C(=O)N2CCN(CCCN(C)C)CC2)CC1 [Example 97]
**A:** no (0)
